test system: wild-type HBV (genotype C); assay: microbe, parasite or virus in culture; type: cell-based; conditions: Hepatitis B virus, Huh-7, wild-type cells
readoutType: IC50 (nM)
Numbers only, in nM.

Prompt: What value of IC50 has been reported for the following molecule? COc1ccc(Cc2nc(NC(=O)C34CC5CC(CC(C5)C3)C4)n(C)c2Cc2ccc(OC)c(OC)c2)cc1 [11a]
Response: 750

----------
test: in vivo; set-up: species or system ICR mouse; conditions: both, ICR, mouse, in vivo, po, 10 mg/kg
readoutType: bioavailability

Prompt: What value of bioavailability has been reported for the following compound? COc1ccc(Cc2nc(NC(=O)C34CC5CC(CC(C5)C3)C4)n(C)c2Cc2ccc(OC)c(OC)c2)cc1 [11a]
Response: 24.8 to 39.2%
